# MEASUREMENT TARGET: Voltage-dependent T-type calcium channel subunit alpha-1G (Homo sapiens, UniProt O43497)
# Sequence (O43497 whole entry): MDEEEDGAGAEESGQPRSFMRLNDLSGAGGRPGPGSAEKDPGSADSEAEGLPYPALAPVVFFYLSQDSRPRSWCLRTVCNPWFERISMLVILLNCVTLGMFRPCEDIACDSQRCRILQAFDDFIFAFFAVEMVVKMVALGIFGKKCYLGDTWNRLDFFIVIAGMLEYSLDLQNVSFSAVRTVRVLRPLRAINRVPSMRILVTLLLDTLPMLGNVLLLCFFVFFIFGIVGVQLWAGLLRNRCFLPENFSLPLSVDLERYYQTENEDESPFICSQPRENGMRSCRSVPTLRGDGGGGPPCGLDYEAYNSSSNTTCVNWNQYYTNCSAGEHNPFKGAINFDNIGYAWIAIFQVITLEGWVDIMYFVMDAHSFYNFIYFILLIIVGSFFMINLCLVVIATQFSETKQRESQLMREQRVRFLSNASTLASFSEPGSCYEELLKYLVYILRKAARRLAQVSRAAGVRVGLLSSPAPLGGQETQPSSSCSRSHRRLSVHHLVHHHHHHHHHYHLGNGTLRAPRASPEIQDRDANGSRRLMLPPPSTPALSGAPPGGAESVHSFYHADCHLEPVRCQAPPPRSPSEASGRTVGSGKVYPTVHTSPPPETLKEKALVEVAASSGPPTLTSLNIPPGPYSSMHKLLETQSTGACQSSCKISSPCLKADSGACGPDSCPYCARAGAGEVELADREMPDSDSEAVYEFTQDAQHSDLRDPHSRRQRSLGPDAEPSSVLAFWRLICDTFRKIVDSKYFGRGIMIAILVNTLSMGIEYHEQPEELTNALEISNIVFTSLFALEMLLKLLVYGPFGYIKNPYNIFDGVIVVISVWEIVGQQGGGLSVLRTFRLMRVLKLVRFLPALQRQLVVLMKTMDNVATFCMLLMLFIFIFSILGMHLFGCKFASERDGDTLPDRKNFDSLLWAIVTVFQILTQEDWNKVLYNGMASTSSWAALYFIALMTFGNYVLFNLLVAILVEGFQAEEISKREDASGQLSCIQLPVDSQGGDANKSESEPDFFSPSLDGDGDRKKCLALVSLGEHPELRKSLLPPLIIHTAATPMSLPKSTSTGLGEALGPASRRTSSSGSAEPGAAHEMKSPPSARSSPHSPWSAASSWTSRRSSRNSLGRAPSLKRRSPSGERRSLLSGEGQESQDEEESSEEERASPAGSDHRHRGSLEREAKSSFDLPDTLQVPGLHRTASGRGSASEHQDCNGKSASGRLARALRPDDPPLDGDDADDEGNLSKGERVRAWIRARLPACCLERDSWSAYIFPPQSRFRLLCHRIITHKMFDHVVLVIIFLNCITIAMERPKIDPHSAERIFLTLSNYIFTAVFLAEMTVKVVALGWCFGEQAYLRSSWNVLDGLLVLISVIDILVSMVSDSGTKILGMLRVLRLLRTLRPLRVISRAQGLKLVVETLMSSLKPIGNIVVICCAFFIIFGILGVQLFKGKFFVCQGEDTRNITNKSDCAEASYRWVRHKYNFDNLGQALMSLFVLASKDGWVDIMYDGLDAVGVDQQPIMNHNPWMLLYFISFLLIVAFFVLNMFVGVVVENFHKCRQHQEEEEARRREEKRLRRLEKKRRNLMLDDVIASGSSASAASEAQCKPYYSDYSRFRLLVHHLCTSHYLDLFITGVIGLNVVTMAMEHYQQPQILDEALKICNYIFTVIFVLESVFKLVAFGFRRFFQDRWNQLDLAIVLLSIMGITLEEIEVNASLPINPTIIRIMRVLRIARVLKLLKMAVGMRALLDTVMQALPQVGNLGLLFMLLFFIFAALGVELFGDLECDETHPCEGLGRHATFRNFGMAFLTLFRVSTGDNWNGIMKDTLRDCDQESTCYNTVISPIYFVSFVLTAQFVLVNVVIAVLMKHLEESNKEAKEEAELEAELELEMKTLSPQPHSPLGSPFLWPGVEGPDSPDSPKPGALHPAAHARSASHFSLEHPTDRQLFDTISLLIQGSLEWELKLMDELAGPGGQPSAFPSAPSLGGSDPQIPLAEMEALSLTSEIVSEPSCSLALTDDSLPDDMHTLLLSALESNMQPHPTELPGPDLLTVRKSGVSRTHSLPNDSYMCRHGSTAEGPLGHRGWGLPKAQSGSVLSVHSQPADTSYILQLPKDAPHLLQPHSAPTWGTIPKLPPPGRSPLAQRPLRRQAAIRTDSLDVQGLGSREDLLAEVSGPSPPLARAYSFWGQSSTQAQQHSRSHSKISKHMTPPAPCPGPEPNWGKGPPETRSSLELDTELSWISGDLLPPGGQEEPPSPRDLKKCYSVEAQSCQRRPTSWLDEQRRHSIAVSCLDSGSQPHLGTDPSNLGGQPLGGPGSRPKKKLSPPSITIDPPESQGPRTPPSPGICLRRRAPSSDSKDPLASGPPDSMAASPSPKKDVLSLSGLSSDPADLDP
# ASSAY NOTES: Inhibition of T type calcium channel subunit alpha-1G expressed in HEK293 cells assessed as effect on T-type calcium currents by patch clamp method
For each of the molecules below, state its IC50.
Numbers only, in nM.

MOLECULE	IC50 (nM)
O=C(CCCN1CCN(c2ccc(F)cc2)CC1)Nc1ccc(Cl)cc1	3490
O=C(CCCN1CCN(Cc2ccc(Cl)cc2)CC1)Nc1ccc(Cl)cc1	370
COc1cccc(N2CCN(CCCC(=O)Nc3ccc(Cl)cc3Cl)CC2)c1	3810
COc1ccccc1N1CCN(CCCC(=O)Nc2ccc(Cl)cc2Cl)CC1	3340
O=C(CCCN1CCN(c2ccc(Cl)cc2)CC1)Nc1ccc(Cl)cc1	2640
O=C(CCCCN1CCN(Cc2cccc(Cl)c2)CC1)N1CCN(c2ccccc2F)CC1	2440

Query block: Look up IC50 for this molecule: COc1ccccc1N1CCN(CCCC(=O)Nc2ccc(Cl)cc2)CC1
Result block: 2610

* * *

# MEASUREMENT TARGET: Voltage-dependent T-type calcium channel subunit alpha-1G (Homo sapiens, UniProt O43497)
# ASSAY NOTES: Inhibition of T type calcium channel subunit alpha1G expressed in HEK293 cells assessed as effect on KCl-induced increase in intracellular calcium level at 10 uM by FDSS assay
# Type: cell-based
MEASUREMENT LABEL: inhibition (%)
Answers are plain numbers, in %.

MOLECULE	inhibition / %
COc1cccc(N2CCN(CCC(=O)Nc3ccc(F)cc3F)CC2)c1	29.5
O=C(CCN1CCN(c2ccc(F)cc2)CC1)Nc1ccc(F)cc1F	29.7
O=C(CCCN1CCN(Cc2ccccc2)CC1)Nc1ccc(Cl)cc1	30.8
O=C(CCN1CCN(Cc2c(F)cccc2Cl)CC1)Nc1ccc(F)cc1F	29.7
O=C(CCCN1CCN(c2ccccc2)CC1)Nc1ccc(Cl)cc1	30.4

# per-item lookup of inhibition; items listed below
1. O=C(CCCN1CCN(Cc2cccc(Cl)c2)CC1)Nc1ccc(F)cc1F
2. O=C(CCN1CCN(c2ccccc2F)CC1)Nc1ccc(F)cc1F

Result block:
1. 30.2
2. 30.3

* * *

# MEASUREMENT TARGET: Voltage-dependent T-type calcium channel subunit alpha-1G (Homo sapiens)
# ASSAY NOTES: Inhibition of T type calcium channel subunit alpha-1G expressed in HEK293 cells assessed as effect on T-type calcium currents by patch clamp method
Record form. Attribute: pIC50. Fill in for each entry.
Numbers only, as −log10 of the molar value.

Would you please look over these solved cases?
MOLECULE	pIC50
O=C(CCCN1CCN(Cc2cccc(Cl)c2)CC1)Nc1ccc(Cl)cc1	5.74
O=C(CCCN1CCN(Cc2ccccc2)CC1)Nc1ccc(Cl)cc1Cl	5.50
O=C(CCCN1CCN(Cc2c(F)cccc2Cl)CC1)Nc1ccc(Cl)cc1Cl	5.62
O=C(CCCN1CCN(c2ccccc2F)CC1)Nc1ccc(Cl)cc1	5.44
O=C(CCCCN1CCN(Cc2ccc(Cl)cc2)CC1)N1CCN(c2ccccc2)CC1	5.47

Could you now consider this next compound?
Query block: Enter reported pIC50 observed with Voltage-dependent T-type calcium channel subunit alpha-1G (Homo sapiens) for O=C(CCCCN1CCN(Cc2ccc(Cl)c(Cl)c2)CC1)Nc1ccccc1Cl
Result block: 6.00
